molecular target: UniProtKB P11229; assay type: functional, cell-based
Sequence (P11229 whole entry): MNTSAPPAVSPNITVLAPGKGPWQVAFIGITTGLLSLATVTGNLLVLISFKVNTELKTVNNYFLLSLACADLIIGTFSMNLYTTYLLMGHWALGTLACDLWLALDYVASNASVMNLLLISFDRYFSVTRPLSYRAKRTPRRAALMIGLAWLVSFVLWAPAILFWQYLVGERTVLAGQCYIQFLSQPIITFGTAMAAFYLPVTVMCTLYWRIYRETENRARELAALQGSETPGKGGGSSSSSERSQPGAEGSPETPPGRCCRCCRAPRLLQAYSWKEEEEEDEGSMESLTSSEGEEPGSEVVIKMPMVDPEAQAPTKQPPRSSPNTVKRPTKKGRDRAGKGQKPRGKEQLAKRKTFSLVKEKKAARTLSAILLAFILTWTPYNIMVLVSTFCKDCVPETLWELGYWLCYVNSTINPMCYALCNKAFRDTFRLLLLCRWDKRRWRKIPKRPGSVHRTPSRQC
EXPERIMENTAL_READOUT: AC50 (µM)
Numbers only here, please. The scale is µM.

Prompt: Param readout = AC50; param system = UniProtKB P11229; param query = COc1cc(NCc2ccc3nc(N)nc(N)c3c2C)cc(OC)c1OC [TRIMETREXATE] ; response: value
Completion: 12.3

Prompt: Param readout = AC50; param system = UniProtKB P11229; param query = O=C1[C@H](CC[C@H](O)c2ccc(F)cc2)[C@@H](c2ccc(O)cc2)N1c1ccc(F)cc1 [EZETIMIBE] ; response: value
Completion: 4.55

###

biological target: Voltage-dependent L-type calcium channel subunit alpha-1C (Rattus norvegicus, UniProt P22002); format: functional; also: assay procedure not described here
Sequence (P22002 whole entry): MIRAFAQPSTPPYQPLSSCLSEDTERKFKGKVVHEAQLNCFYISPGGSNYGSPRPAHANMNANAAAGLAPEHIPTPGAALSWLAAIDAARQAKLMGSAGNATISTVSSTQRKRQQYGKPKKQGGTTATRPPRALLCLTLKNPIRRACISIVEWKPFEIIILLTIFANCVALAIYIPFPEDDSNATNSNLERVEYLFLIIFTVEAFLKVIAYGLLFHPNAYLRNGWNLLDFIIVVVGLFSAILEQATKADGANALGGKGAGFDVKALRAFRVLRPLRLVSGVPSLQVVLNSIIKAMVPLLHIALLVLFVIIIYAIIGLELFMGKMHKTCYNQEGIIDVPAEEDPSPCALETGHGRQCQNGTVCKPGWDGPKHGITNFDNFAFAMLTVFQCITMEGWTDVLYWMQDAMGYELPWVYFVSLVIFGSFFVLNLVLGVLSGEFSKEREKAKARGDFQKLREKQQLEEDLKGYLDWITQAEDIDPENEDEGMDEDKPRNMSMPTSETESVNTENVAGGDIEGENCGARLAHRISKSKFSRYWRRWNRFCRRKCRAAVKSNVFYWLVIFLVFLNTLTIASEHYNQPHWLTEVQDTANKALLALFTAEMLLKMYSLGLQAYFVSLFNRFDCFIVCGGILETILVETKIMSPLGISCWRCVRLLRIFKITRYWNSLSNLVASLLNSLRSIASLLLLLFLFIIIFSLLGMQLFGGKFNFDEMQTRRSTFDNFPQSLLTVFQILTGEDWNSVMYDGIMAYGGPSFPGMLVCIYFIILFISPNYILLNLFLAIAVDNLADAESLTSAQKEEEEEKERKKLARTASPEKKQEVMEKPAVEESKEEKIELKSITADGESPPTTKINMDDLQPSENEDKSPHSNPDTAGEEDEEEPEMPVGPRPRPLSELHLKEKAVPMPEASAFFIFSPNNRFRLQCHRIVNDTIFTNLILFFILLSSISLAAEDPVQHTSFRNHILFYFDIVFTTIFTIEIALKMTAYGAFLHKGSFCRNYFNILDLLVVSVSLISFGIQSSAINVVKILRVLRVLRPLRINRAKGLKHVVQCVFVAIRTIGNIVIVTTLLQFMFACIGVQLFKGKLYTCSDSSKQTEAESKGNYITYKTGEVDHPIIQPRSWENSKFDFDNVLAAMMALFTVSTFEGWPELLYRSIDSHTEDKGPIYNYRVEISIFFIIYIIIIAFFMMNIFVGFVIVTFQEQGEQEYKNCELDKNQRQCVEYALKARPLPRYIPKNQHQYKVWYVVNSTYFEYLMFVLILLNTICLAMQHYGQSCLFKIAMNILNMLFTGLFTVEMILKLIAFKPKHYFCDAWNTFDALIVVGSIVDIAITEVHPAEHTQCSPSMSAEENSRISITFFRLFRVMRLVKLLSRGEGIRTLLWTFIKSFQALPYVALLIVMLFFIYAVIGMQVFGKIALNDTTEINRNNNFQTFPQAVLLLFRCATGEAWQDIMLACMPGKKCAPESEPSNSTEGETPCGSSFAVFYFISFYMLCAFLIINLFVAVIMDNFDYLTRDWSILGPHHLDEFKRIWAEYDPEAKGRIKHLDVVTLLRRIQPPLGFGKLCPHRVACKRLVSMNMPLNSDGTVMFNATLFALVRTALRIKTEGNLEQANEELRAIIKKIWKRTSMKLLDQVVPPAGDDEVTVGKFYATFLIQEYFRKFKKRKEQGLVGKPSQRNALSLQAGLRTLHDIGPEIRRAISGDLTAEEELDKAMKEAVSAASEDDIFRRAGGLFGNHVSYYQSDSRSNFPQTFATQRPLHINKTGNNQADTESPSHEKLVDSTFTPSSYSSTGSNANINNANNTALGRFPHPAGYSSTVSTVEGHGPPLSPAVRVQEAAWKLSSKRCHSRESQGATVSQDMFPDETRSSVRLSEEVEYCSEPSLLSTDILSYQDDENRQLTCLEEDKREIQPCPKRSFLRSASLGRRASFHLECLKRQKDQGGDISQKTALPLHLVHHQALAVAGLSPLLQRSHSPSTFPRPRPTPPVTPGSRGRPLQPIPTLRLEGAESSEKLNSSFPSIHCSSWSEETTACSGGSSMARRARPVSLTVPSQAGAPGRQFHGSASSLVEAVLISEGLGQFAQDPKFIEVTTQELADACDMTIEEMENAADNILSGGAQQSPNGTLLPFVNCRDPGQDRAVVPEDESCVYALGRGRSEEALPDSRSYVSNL
# Lookup of reported AC50 keyed by entry

Example entries and their recorded answers appear below.
O=C(Cn1ccnc1[N+](=O)[O-])NCc1ccccc1; > 30 µM
O=C(OCCN1CCOCC1)c1cccnc1Nc1cccc(C(F)(F)F)c1 [MORNIFLUMATE]; > 30 µM
CN1CC(=O)N2[C@H](c3ccc4c(c3)OCO4)c3[nH]c4ccccc4c3C[C@@H]2C1=O; > 10 µM
COC(=O)C1=C(C)NC(C)=C(C(=O)OC(C)C)C1c1cccc2nonc12 (stereo unspecified); 0.0045 µM
C#C[C@]1(O)CC[C@H]2[C@@H]3CCc4cc(O)ccc4[C@H]3CC[C@@]21C; > 10 µM

Now consider a different compound.
Prompt: What measured AC50 goes with Cc1c(C(=O)Nc2ccc(N3C[C@@H](C)O[C@@H](C)C3)nc2)cccc1-c1ccc(OC(F)(F)F)cc1 ?
Completion: > 10 µM

###

# Lookup of reported AC50 keyed by entry
target: Amine oxidase [flavin-containing] A (Homo sapiens); format: functional; also: assay procedure not described here
Sequence (P21397 whole entry): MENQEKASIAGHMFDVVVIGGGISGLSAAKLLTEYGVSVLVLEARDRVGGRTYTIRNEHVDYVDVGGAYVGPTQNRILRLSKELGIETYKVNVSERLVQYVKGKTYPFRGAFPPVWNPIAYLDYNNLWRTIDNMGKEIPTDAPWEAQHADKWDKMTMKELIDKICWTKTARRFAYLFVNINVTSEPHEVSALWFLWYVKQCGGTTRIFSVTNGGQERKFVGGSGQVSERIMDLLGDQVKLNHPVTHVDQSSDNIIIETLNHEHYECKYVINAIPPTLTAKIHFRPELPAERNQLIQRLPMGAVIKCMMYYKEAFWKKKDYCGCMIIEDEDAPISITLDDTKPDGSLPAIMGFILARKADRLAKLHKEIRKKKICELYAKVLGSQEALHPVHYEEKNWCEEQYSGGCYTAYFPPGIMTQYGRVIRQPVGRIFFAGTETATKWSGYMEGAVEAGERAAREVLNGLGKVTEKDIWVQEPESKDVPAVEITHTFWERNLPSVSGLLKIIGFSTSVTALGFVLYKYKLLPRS

Example entries and their recorded answers appear below.
O=C(C[S+]([O-])C(c1ccccc1)c1ccccc1)NO (stereo unspecified); > 30 µM
C#C[C@]1(O)CC[C@H]2[C@@H]3CCc4cc(O)ccc4[C@H]3CC[C@@]21C; > 10 µM
NC(=O)c1cnccn1 [PYRAZINAMIDE]; > 30 µM
Nc1ccc(/N=N/c2ccccc2)c(N)n1; > 30 µM
CC(C)c1c(C(=O)Nc2ccccc2)c(-c2ccccc2)c(-c2ccc(F)cc2)n1CC[C@@H](O)C[C@@H](O)CC(=O)O; > 10 µM
NC(N)=Nc1nc(CSCCC(N)=NS(N)(=O)=O)cs1; 8.1 µM
NC(=O)C[S+]([O-])C(c1ccccc1)c1ccccc1 (stereo unspecified); > 10 µM
CCCCCCCCCCCC[N+](C)(C)CCOc1ccccc1; 28 µM

Prompt: What measured AC50 goes with CN1C(=O)COc2c(C(=O)NC3CN4CCC3CC4)cc(Cl)cc21 (stereo unspecified) ?
Completion: > 30 µM

Prompt: What measured AC50 goes with CC(=O)OCC(=O)[C@@]1(O)CC[C@H]2[C@@H]3CCC4=CC(=O)CC[C@]4(C)[C@H]3C(=O)C[C@@]21C [CORTISONE ACETATE] ?
Completion: > 30 µM

Prompt: What measured AC50 goes with O=C(O)CCCc1ccccc1 ?
Completion: > 30 µM

Prompt: What measured AC50 goes with C1COC(NC(C2CC2)C2CC2)=N1 ?
Completion: > 10 µM

Prompt: What measured AC50 goes with CCCCN1CCCCC1C(=O)Nc1c(C)cccc1C (stereo unspecified) ?
Completion: > 30 µM

Prompt: What measured AC50 goes with CS(=O)(=O)Nc1cc2occ(NC=O)c(=O)c2cc1Oc1ccccc1 ?
Completion: > 30 µM

Prompt: What measured AC50 goes with CCOC(=O)[C@H](CCc1ccccc1)N[C@@H](C)C(=O)N1CCC[C@H]1C(=O)O ?
Completion: > 10 µM

Prompt: What measured AC50 goes with CC(C(=O)O)c1ccc(N2CC=CC2)c(Cl)c1 (stereo unspecified) ?
Completion: > 10 µM
